- targetOfAssay: TNF-α (Homo sapiens)
- Construct: purchased R&D 210-TA-020/CF
- experimentDescription: TNF-α Induced HEK Blue Cellular Assay (secreted alkaline phosphatase expression, QUANTI-Blue)
- Type: cell-based
- recordedConditions: HEK Blue TNFα reporter cells; TNF-α 100 μg/ml; 24 hrs at 37° C.; inhibition of secreted alkaline phosphatase; read-out: IC50 value
- Method: TNF-α Induced HEK Blue Cellular Assay Test articles were diluted in DMSO and serially diluted into 384 well assay plate (Corning 3765), at final concentrations ranging from 30 mM to 0.5 nM. […]
pIC50: −log10 of the molar value.
Listing: pIC50 of selected compounds

[2H]C([2H])([2H])N1C(=O)c2cccc(OC(F)F)c2[C@H]2C[C@@H]1c1nc3ccc(C#CC4(C)CN(CC)C4)cc3n12 | > 7.00
[2H]C([2H])([2H])N1C(=O)c2cccc(OC(F)F)c2[C@H]2C[C@@H]1c1nc3ccc(C#CC4CCCO4)cc3n12 (stereo partly shown) | > 7.00
[2H]C([2H])([2H])N1C(=O)c2cccc(OC(F)F)c2[C@H]2C[C@@H]1c1nc3ccc(C#Cc4nnc(N)s4)cc3n12 | > 7.00

GET /values?readout=pIC50&item= [2H]C([2H])([2H])N1C(=O)c2cccc(OC(F)F)c2[C@H]2C[C@@H]1c1nc3ccc(C#CC4CN(C(=O)C5(C)CC5)C4)cc3n12
> 7.00

// same read-out, input: [2H]C([2H])([2H])N1C(=O)c2cccc(OC(F)F)c2[C@H]2C[C@@H]1c1nc3ccc(C#Cc4cnsc4)cc3n12
> 7.00

// same read-out, input: [2H]C([2H])([2H])N1C(=O)c2cccc(OC(F)F)c2[C@H]2C[C@@H]1c1nc3ccc(C#CC4CN(C)C4)cc3n12
> 7.00

// same read-out, input: [2H]C([2H])([2H])N1C(=O)c2cccc(OC(F)F)c2[C@H]2C[C@@H]1c1nc3ccc(C#CC4(C(F)F)CC4)cc3n12
6.00 to 7.00

// same read-out, input: [2H]C([2H])([2H])N1C(=O)c2cccc(OC(F)F)c2[C@H]2C[C@@H]1c1nc3ccc(C#CCNCC)cc3n12
4.52 to 5.00

// same read-out, input: [2H]C([2H])([2H])N1C(=O)c2cccc(OC(F)F)c2[C@H]2C[C@@H]1c1nc3ccc(C#CCCNC(=O)C4CC4)cc3n12
6.00 to 7.00

// same read-out, input: [2H]C([2H])([2H])N1C(=O)c2cccc(OC(F)F)c2[C@H]2C[C@@H]1c1nc3ccc(C#CCCN4CCN(C)CC4)cc3n12
> 7.00

* * *

- targetOfAssay: TNF-α (Homo sapiens)
- Construct: purchased R&D 210-TA-020/CF
- experimentDescription: TNF-α Induced HEK Blue Cellular Assay (secreted alkaline phosphatase expression, QUANTI-Blue)
- Format: cell-based
- recordedConditions: HEK Blue TNFα reporter cells; TNF-α 100 μg/ml; 24 hrs at 37° C.; inhibition of secreted alkaline phosphatase; read-out: IC50 value
readoutLabel: IC50

[2H]C([2H])([2H])N1C(=O)c2cccc(OC(F)F)c2[C@H]2C[C@@H]1c1nc3ccc(C#CC(C)CCO)cc3n12 (single isomer, unassigned) [Example 239] | < 100 nM
[2H]C([2H])([2H])N1C(=O)c2cccc(OC(F)F)c2[C@H]2C[C@@H]1c1nc3ccc(C#CCOC)cc3n12 | 100 to 1000 nM

Missing value: IC50, TNF-α (Homo sapiens), entry [2H]C([2H])([2H])N1C(=O)c2cccc(OC(F)F)c2[C@H]2C[C@@H]1c1nc3ccc(C#Cc4ccnn4C)cc3n12 . Fill in?
< 100 nM

// same read-out, input: [2H]C([2H])([2H])N1C(=O)c2cccc(OC(F)F)c2[C@H]2C[C@@H]1c1nc3ccc(C#CC4CCNCC4)cc3n12
< 100 nM

// same read-out, input: [2H]C([2H])([2H])N1C(=O)c2cccc(OC(F)F)c2[C@H]2C[C@@H]1c1nc3ccc(C#CC4CN(C(=O)C(C)(C)C#N)C4)cc3n12
100 to 1000 nM

* * *

- targetOfAssay: TNF-α (Homo sapiens, UniProt P01375)
- Construct: purchased R&D 210-TA-020/CF
- Sequence (P01375 77-233 limits assumed): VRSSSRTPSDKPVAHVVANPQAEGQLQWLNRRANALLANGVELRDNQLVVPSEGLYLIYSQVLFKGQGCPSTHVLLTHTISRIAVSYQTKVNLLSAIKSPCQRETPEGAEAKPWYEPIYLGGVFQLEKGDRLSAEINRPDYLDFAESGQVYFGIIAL
- experimentDescription: TNF-α Induced HEK Blue Cellular Assay (secreted alkaline phosphatase expression, QUANTI-Blue)
- Type: cell-based
- recordedConditions: HEK Blue TNFα reporter cells; TNF-α 100 μg/ml; 24 hrs at 37° C.; inhibition of secreted alkaline phosphatase; read-out: IC50 value
Listing: IC50 of selected compounds

// worked examples, IC50 included
Cn1nncc1C#Cc1ccc2nc3n(c2c1)[C@@H]1C[C@H]3NC(=O)c2cccc(OC(F)F)c21 | < 100 nM
[2H]C([2H])([2H])N1C(=O)c2cccc(OC(F)F)c2[C@H]2C[C@@H]1c1nc3ccc(C#Cc4cn(C)nn4)cc3n12 | < 100 nM
[2H]C([2H])([2H])N1C(=O)c2cccc(OC(F)F)c2[C@H]2C[C@@H]1c1nc3ccc(C#CC(C)CCO)cc3n12 (single isomer, unassigned) [Example 240] | < 100 nM
[2H]C([2H])([2H])N1C(=O)c2cccc(OC(F)F)c2[C@H]2C[C@@H]1c1nc3ccc(C#CC4CCN(C(C)=O)CC4)cc3n12 | < 100 nM
[2H]C([2H])([2H])N1C(=O)c2cccc(OC(F)F)c2[C@H]2C[C@@H]1c1nc3ccc(C#C)cc3n12 | < 100 nM
[2H]C([2H])([2H])N1C(=O)c2cccc(OC(F)F)c2[C@H]2C[C@@H]1c1nc3ccc(C#CC4CC(C)(O)C4)cc3n12 (stereo partly drawn) | < 100 nM
[2H]C([2H])([2H])N1C(=O)c2cccc(OC(F)F)c2[C@H]2C[C@@H]1c1nc3ccc(C#CC4CN(C5COC5)C4(C)C)cc3n12 (stereo partly drawn) | < 100 nM
[2H]C([2H])([2H])N1C(=O)c2cccc(OC(F)F)c2[C@H]2C[C@@H]1c1nc3ccc(C#Cc4nnc(C)s4)cc3n12 | < 100 nM
CN1C(=O)c2cccc(OC(F)F)c2[C@H]2C[C@@H]1c1nc3ccc(C#Cc4cnn(C)c4)cc3n12 | < 100 nM
[2H]C([2H])([2H])N1C(=O)c2cccc(OC(F)F)c2[C@H]2C[C@@H]1c1nc3ccc(C#Cc4ccc(P(C)(C)=O)s4)cc3n12 | < 100 nM

GET /values?readout=IC50&item= [2H]C([2H])([2H])N1C(=O)c2cccc(OC(F)F)c2[C@H]2C[C@@H]1c1nc3ccc(C#CC(=O)O)cc3n12
< 100 nM

// same read-out, input: [2H]C([2H])([2H])N1C(=O)c2cccc(OC(F)F)c2[C@H]2C[C@@H]1c1nc3ccc(C#CCCCC(=O)O)cc3n12
< 100 nM

// same read-out, input: [2H]C([2H])([2H])N1C(=O)c2cccc(OC(F)F)c2[C@H]2C[C@@H]1c1nc3ccc(C#CCNC(=O)C4CC4)cc3n12
< 100 nM

// same read-out, input: [2H]C([2H])([2H])N1C(=O)c2cccc(OC(F)F)c2[C@H]2C[C@@H]1c1nc3ccc(C#CCCCO)cc3n12
< 100 nM

// same read-out, input: [2H]C([2H])([2H])N1C(=O)c2cccc(OC(F)F)c2[C@H]2C[C@@H]1c1nc3ccc(C#CCCCNC)cc3n12
100 to 1000 nM

// same read-out, input: [2H]C([2H])([2H])N1C(=O)c2cccc(OC(F)F)c2[C@H]2C[C@@H]1c1nc3ccc(C#CCCN(C)C)cc3n12
100 to 1000 nM

// same read-out, input: [2H]C([2H])([2H])N1C(=O)c2cccc(OC(F)F)c2[C@H]2C[C@@H]1c1nc3ccc(C#Cc4ccc(C)nn4)cc3n12
100 to 1000 nM

// same read-out, input: [2H]C([2H])([2H])N1C(=O)c2cccc(OC(F)F)c2[C@H]2C[C@@H]1c1nc3ccc(C#CC4(C)CN(CCO)C4)cc3n12
100 to 1000 nM

* * *

- targetOfAssay: TNF-α (Homo sapiens, UniProt P01375)
- Construct: purchased R&D 210-TA-020/CF
- experimentDescription: TNF-α Induced HEK Blue Cellular Assay (secreted alkaline phosphatase expression, QUANTI-Blue)
- Format: cell-based
- recordedConditions: HEK Blue TNFα reporter cells; TNF-α 100 μg/ml; 24 hrs at 37° C.; inhibition of secreted alkaline phosphatase; read-out: IC50 value
pIC50: −log10 of the molar value.
readoutLabel: pIC50

// worked examples, pIC50 included
[2H]C([2H])([2H])N1C(=O)c2cccc(OC(F)F)c2[C@H]2C[C@@H]1c1nc3ccc(C#Cc4cnc(C(F)(F)F)nc4)cc3n12 [Example 23] | 6.00 to 7.00
[2H]C([2H])([2H])N1C(=O)c2cccc(OC(F)F)c2[C@H]2C[C@@H]1c1nc3ccc(C#CCCCCO)cc3n12 [Example 92] | > 7.00

Turning now to a further record.
GET /values?readout=pIC50&item= [2H]C([2H])([2H])N1C(=O)c2cccc(OC(F)F)c2[C@H]2C[C@@H]1c1nc3ccc(C#Cc4cnc(C)nc4)cc3n12 [Example 21]
> 7.00

Source of measurements: patent US20260365682A1
